test: Pharmacokinetic study in rats after oral administration of SYD extract and its single and combined TCM extracts (UPLC-MS/MS of plasma); settings: male, Sprague-Dawley, rat, plasma, po, 8.25 g/kg, MRT(0–t), rat plasma, oral SYD extract 8.25 g/kg, n = 6
Catalogue of MRT last readings, one per entry.
// return numeric value only (unit: h, not printed)

compound: O=C(/C=C/c1ccc(O)c(O)c1)O[C@@H]1C[C@](O)(C(=O)O)C[C@@H](O)[C@H]1O
MRT last (h): 3.28

compound: C[C@]1(OC(=O)/C=C/c2ccccc2)C[C@@H](O)[C@]2(O)C=CO[C@@H](O[C@@H]3O[C@H](CO)[C@@H](O)[C@H](O)[C@H]3O)[C@@H]21 [Harpagoside, harpagoside]
MRT last (h): 3.92

compound: COC(=O)C1=CO[C@@H](O[C@@H]2O[C@H](CO)[C@@H](O)[C@H](O)[C@H]2O)[C@@H]2[C@@H](C)[C@@H](O)C[C@H]12
MRT last (h): 4.71

Requested read-out: MRT last. Entry: O=C1C[C@@H](c2ccc(O[C@@H]3O[C@H](CO)[C@@H](O)[C@H](O)[C@H]3O)cc2)Oc2cc(O)ccc21
2.89

Requested read-out: MRT last. Entry: COc1ccc(CCO[C@@H]2O[C@H](CO[C@@H]3OC[C@H](O)[C@H](O)[C@H]3O)[C@@H](OC(=O)/C=C/c3ccc(O)c(OC)c3)[C@H](O[C@@H]3O[C@@H](C)[C@H](O)[C@@H](O)[C@H]3O)[C@H]2O)cc1O [Angoroside C, angoroside C]
3.01

###

assay: Pharmacokinetic study in rats after oral administration of SYD extract and its single and combined TCM extracts (UPLC-MS/MS of plasma); conditions: male, Sprague-Dawley, rat, plasma, po, 2.43 g/kg, t1/2, rat plasma, oral AS + GU extract 2.43 g/kg, n = 6
Catalogue of half-life readings, one per entry.
// return numeric value only (unit: h, not printed)

molecule: O=C1C[C@@H](c2ccc(O[C@@H]3O[C@H](CO)[C@@H](O)[C@H](O)[C@H]3O)cc2)Oc2cc(O)ccc21 [Liquiritin, liquiritin]
half-life, h: 9.28

Requested read-out: half-life. Entry: O=C(/C=C/c1ccc(O)c(O)c1)O[C@@H]1C[C@](O)(C(=O)O)C[C@@H](O)[C@H]1O [Chlorogenic acid, chlorogenic acid]
2.78

###

Catalogue of half-life readings, one per entry.
test: Pharmacokinetic study in rats after oral administration of SYD extract and its single and combined TCM extracts (UPLC-MS/MS of plasma); details: male, Sprague-Dawley, rat, plasma, po, 8.25 g/kg, t1/2, rat plasma, oral SYD extract 8.25 g/kg, n = 6

compound: COC(=O)C1=CO[C@@H](O[C@@H]2O[C@H](CO)[C@@H](O)[C@H](O)[C@H]2O)[C@@H]2[C@@H](C)[C@@H](O)C[C@H]12 [Loganin, loganin]
half-life: 7.45 h

Requested read-out: half-life. Entry: O=C(/C=C/c1ccc(O)c(O)c1)O[C@@H]1C[C@](O)(C(=O)O)C[C@@H](O)[C@H]1O [Chlorogenic acid, chlorogenic acid]
8.08 h

Requested read-out: half-life. Entry: O=C1C[C@@H](c2ccc(O[C@@H]3O[C@H](CO)[C@@H](O)[C@H](O)[C@H]3O)cc2)Oc2cc(O)ccc21 [Liquiritin, liquiritin]
13.4 h

Requested read-out: half-life. Entry: COc1ccc(CCO[C@@H]2O[C@H](CO[C@@H]3OC[C@H](O)[C@H](O)[C@H]3O)[C@@H](OC(=O)/C=C/c3ccc(O)c(OC)c3)[C@H](O[C@@H]3O[C@@H](C)[C@H](O)[C@@H](O)[C@H]3O)[C@H]2O)cc1O [Angoroside C, angoroside C]
11.4 h

Requested read-out: half-life. Entry: C[C@]1(OC(=O)/C=C/c2ccccc2)C[C@@H](O)[C@]2(O)C=CO[C@@H](O[C@@H]3O[C@H](CO)[C@@H](O)[C@H](O)[C@H]3O)[C@@H]21 [Harpagoside, harpagoside]
11.2 h

###

Catalogue of MRT inf readings, one per entry.
test: Pharmacokinetic study in rats after oral administration of SYD extract and its single and combined TCM extracts (UPLC-MS/MS of plasma); details: male, Sprague-Dawley, rat, plasma, po, 3.29 g·kg^−1 (extract), MRT(0–∞), rat plasma, oral LJ + AS extract, n = 6

cpd-smiles: O=C(/C=C/c1ccc(O)c(O)c1)O[C@@H]1C[C@](O)(C(=O)O)C[C@@H](O)[C@H]1O
MRT inf: 37.6 h

Requested read-out: MRT inf. Entry: COC(=O)C1=CO[C@@H](O[C@@H]2O[C@H](CO)[C@@H](O)[C@H](O)[C@H]2O)[C@@H]2[C@@H](C)[C@@H](O)C[C@H]12
80.9 h

###

Catalogue of half-life readings, one per entry.
experiment: Pharmacokinetic study in rats after oral administration of SYD extract and its single and combined TCM extracts (UPLC-MS/MS of plasma); conditions: male, Sprague-Dawley, rat, plasma, po, 4.5 g·kg^−1 (extract), t1/2, rat plasma, oral LJ + SN extract, n = 6
// return numeric value only (unit: h, not printed)

Worked set:
compound: COc1ccc(CCO[C@@H]2O[C@H](CO[C@@H]3OC[C@H](O)[C@H](O)[C@H]3O)[C@@H](OC(=O)/C=C/c3ccc(O)c(OC)c3)[C@H](O[C@@H]3O[C@@H](C)[C@H](O)[C@@H](O)[C@H]3O)[C@H]2O)cc1O [Angoroside C, angoroside C]
endpoint-unit: h
experimental-value: 10.3
//
compound: O=C(/C=C/c1ccc(O)c(O)c1)O[C@@H]1C[C@](O)(C(=O)O)C[C@@H](O)[C@H]1O
endpoint-unit: h
experimental-value: 7.82
//
compound: COC(=O)C1=CO[C@@H](O[C@@H]2O[C@H](CO)[C@@H](O)[C@H](O)[C@H]2O)[C@@H]2[C@@H](C)[C@@H](O)C[C@H]12
endpoint-unit: h
experimental-value: 9.39

Read the next record carefully.
Requested read-out: half-life. Entry: C[C@]1(OC(=O)/C=C/c2ccccc2)C[C@@H](O)[C@]2(O)C=CO[C@@H](O[C@@H]3O[C@H](CO)[C@@H](O)[C@H](O)[C@H]3O)[C@@H]21 [Harpagoside, harpagoside]
15.8

###

Catalogue of MRT inf readings, one per entry.
test: Pharmacokinetic study in rats after oral administration of SYD extract and its single and combined TCM extracts (UPLC-MS/MS of plasma); conditions: male, Sprague-Dawley, rat, plasma, po, 5.43 g/kg, MRT(0–∞), rat plasma, oral LJ + SN + AS extract 5.43 g/kg, n = 6
// return numeric value only (unit: h, not printed)

molecule: COC(=O)C1=CO[C@@H](O[C@@H]2O[C@H](CO)[C@@H](O)[C@H](O)[C@H]2O)[C@@H]2[C@@H](C)[C@@H](O)C[C@H]12
readout-label: MRT inf
experimental-value: 4.07

Requested read-out: MRT inf. Entry: COc1ccc(CCO[C@@H]2O[C@H](CO[C@@H]3OC[C@H](O)[C@H](O)[C@H]3O)[C@@H](OC(=O)/C=C/c3ccc(O)c(OC)c3)[C@H](O[C@@H]3O[C@@H](C)[C@H](O)[C@@H](O)[C@H]3O)[C@H]2O)cc1O [Angoroside C, angoroside C]
8.16

Requested read-out: MRT inf. Entry: C[C@]1(OC(=O)/C=C/c2ccccc2)C[C@@H](O)[C@]2(O)C=CO[C@@H](O[C@@H]3O[C@H](CO)[C@@H](O)[C@H](O)[C@H]3O)[C@@H]21 [Harpagoside, harpagoside]
13

Requested read-out: MRT inf. Entry: O=C(/C=C/c1ccc(O)c(O)c1)O[C@@H]1C[C@](O)(C(=O)O)C[C@@H](O)[C@H]1O
59.5

###

experiment: Pharmacokinetic study in rats after oral administration of SYD extract and its single and combined TCM extracts (UPLC-MS/MS of plasma); settings: male, Sprague-Dawley, rat, plasma, po, 8.25 g/kg, AUC(0–t), rat plasma, oral SYD extract 8.25 g/kg, n = 6
Give true when the value for AUC(0-t) is at least 2000 ng·h/mL. Give false when it is less.

Solved entries:
compound: C[C@]1(OC(=O)/C=C/c2ccccc2)C[C@@H](O)[C@]2(O)C=CO[C@@H](O[C@@H]3O[C@H](CO)[C@@H](O)[C@H](O)[C@H]3O)[C@@H]21 [Harpagoside, harpagoside]
label: false

compound: COc1ccc(CCO[C@@H]2O[C@H](CO[C@@H]3OC[C@H](O)[C@H](O)[C@H]3O)[C@@H](OC(=O)/C=C/c3ccc(O)c(OC)c3)[C@H](O[C@@H]3O[C@@H](C)[C@H](O)[C@@H](O)[C@H]3O)[C@H]2O)cc1O [Angoroside C, angoroside C]
label: false

compound: O=C(/C=C/c1ccc(O)c(O)c1)O[C@@H]1C[C@](O)(C(=O)O)C[C@@H](O)[C@H]1O [Chlorogenic acid, chlorogenic acid]
label: true

Does the reported AUC(0-t) for O=C1C[C@@H](c2ccc(O[C@@H]3O[C@H](CO)[C@@H](O)[C@H](O)[C@H]3O)cc2)Oc2cc(O)ccc21 [Liquiritin, liquiritin] fall at or above the 2000 ng·h/mL mark?
false
